tested on: HeLa; assay: Primary qHTS to identify gynecologic anti-cancer compounds using libraries of approved drugs and bioactive compounds (AID 1345084); conditions: Gynecologic cancer cell panel viability, ATPlite luminescence, 48 h; series mostly up to 57.5 µM; also: % is scaled to controls: 0 for no effect and ±100 for the full control effect; nearly all actives have a fitted effect of over 55% in size
Records with an inconclusive call do not appear. Calls of active or inactive are those of the source. Calls follow the shape of the dose curve; as a rule, active = well fitted cell-killing curve with a large enough effect; inconclusive = small, poorly fitted or top-dose-only effect, or effect the other way; inactive = flat fitted curve, though single readings scatter. *1 amine or outer side, *2 acyl side, *3 side chain or, on linkers, in order; H or OH if unused. Where a SMILES comes first, the peptide text is derived from it. [ ]: non-standard residue; d: D form. X4 = CC(C)=CCc1cc(C(O)C(N[*:1])C(=O)[*:2])ccc1O
QUANTITY KIND: activity change, negative = cytotoxicity

Recorded activity change, negative = cytotoxicity, per entry:
compound="CC1(C)CC[C@]2(CO[C@@H]3O[C@H](CO)[C@@H](O)[C@H](O)[C@H]3O)[C@@H](O)C[C@]3(C)C(=CCC4[C@@]5(C)CC[C@H](O[C@@H]6O[C@H](CO[C@@H]7O[C@H](CO[C@@H]8OC[C@@H](O)[C@H](O)[C@H]8O)[C@@H](O)[C@H](O)[C@H]7O)[C@@H](O)[C@H](O)[C@H]6O)C(C)(C)C5CC[C@]43C)[C@@H]2C1 (stereo not given in full)" quantity_kind="activity change, negative = cytotoxicity" val="-7.27% [at 11.6 µM] (inactive)"
compound="CC(CCC1(O)OC2CC3C4CCC5CC(O[C@@H]6O[C@H](CO)[C@@H](O)[C@H](O)[C@H]6O[C@@H]6O[C@@H](C)[C@H](O)[C@@H](O)[C@H]6O)C(O)CC5(C)C4CCC3(C)C2C1C)CO[C@@H]1O[C@H](CO)[C@@H](O)[C@H](O)[C@H]1O (stereo not given in full)" quantity_kind="activity change, negative = cytotoxicity" val="3.09% [at 11.6 µM] (inactive)"

Problem: Record request: activity change, negative = cytotoxicity value, item CC(C)=CCc1cc(C(O)C2NC(=O)CNC(=O)C(Cc3c[nH]c4ccccc34)NC(=O)C3CCCN3C(=O)CNC(=O)C(C(C)C)NC(=O)CNC2=O)ccc1O (stereo not given) (cyclo(G[X4]GVGPW); configuration not given here)
Solution: 5.32% [at 11.6 µM] (inactive)

Problem: Record request: activity change, negative = cytotoxicity value, item C[C@@H]1O[C@@H](O[C@H]2[C@H](O[C@H]3CC[C@@]4(C)C(CC[C@]5(C)C4C=C[C@]46OC[C@@]7(CCC(C)(C)C[C@H]74)[C@@H](O)C[C@]65C)[C@]3(C)CO)O[C@H](CO)[C@@H](O)[C@@H]2O[C@@H]2O[C@H](CO)[C@@H](O[C@@H]3O[C@@H](C)[C@H](O)[C@@H](O)[C@H]3O)[C@H](O)[C@H]2O)[C@H](O)[C@H](O)[C@H]1O (stereo not given in full)
Solution: -11.4% [at 11.6 µM] (inactive)

Problem: Record request: activity change, negative = cytotoxicity value, item O=C(O)C1CN(Cc2ccc(-c3nc4cc(Cc5ccccc5F)ccc4s3)c(F)c2)C1
Solution: 11.8% [at 11.6 µM] (inactive)
